Readings of log10(Ki) for the listed binders
# experimental_target: T1, human GIP receptor (human, UniProt P48546 22-466)
# T1 construct: whole, on cells; also called hGIPR; human glucose-dependent insulinotropic polypeptide receptor
# T1 sequence (looked up): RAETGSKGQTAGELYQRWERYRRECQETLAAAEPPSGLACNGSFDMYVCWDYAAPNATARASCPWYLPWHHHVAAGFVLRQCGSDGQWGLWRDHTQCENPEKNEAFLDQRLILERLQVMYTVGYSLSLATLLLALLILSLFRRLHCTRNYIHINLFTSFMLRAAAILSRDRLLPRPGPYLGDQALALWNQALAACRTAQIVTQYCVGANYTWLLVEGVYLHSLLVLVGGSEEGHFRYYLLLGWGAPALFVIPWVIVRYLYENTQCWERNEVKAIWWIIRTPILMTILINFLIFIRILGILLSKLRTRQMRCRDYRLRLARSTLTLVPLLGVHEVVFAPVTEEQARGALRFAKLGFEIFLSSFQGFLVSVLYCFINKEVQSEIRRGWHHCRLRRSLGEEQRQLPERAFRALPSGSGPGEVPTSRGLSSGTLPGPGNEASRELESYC
# method_description: SPA competition vs [125I]-GIP, hGIPR membranes
value_kind: log10(Ki) (log10 of the value in nM)

>>> value_measured("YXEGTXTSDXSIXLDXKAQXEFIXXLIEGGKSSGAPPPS (Aib2, αMeF(2F)6, αMeL10, αMeL13, Orn16, K17(Z1), Aib20, D-Glu24, αMeY25, K31(Z1), C-term NH2; Z1=AEEA2-(γ-Glu)-CO-(CH2)12-CO2H)")
-1.13
>>> value_measured("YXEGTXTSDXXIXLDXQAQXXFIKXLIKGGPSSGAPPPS (Aib2, αMeF(2F)6, 4Pal10, Aib11, αMeL13, Orn16, Aib20, Orn21, K24(Z1), αMeY25, K28(Z1), C-term NH2; Z1=PEG4-(γ-Glu)-(10-(4-carboxyphenoxy)decanoyl))")
-2.00
>>> value_measured("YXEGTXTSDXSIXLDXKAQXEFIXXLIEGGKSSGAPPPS (Aib2, αMeF(2F)6, 4Pal10, αMeL13, Orn16, K17(Z1), Aib20, D-Glu24, αMeY25, K31(Z1), C-term NH2; Z1=AEEA2-(γ-Glu)-CO-(CH2)12-CO2H)")
-1.06
>>> value_measured("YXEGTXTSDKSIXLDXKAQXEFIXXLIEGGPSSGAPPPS (Aib2, αMeF(2F)6, K10(Z1), αMeL13, Orn16, K17(Z1), Aib20, D-Glu24, αMeY25, C-term NH2; Z1=AEEA2-(γ-Glu)-CO-(CH2)12-CO2H)")
-0.42
>>> value_measured("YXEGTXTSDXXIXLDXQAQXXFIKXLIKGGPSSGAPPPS (Aib2, αMeF(2F)6, 4Pal10, Aib11, αMeL13, Orn16, Aib20, Orn21, K24(Z1), αMeY25, K28(Z1), C-term NH2; Z1=AEEA-(γ-Glu)3-CO-(CH2)12-CO2H)")
-1.34
>>> value_measured("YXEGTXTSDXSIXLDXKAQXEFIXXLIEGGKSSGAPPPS (Aib2, αMeF(2F)6, 4Pal10, αMeL13, Orn16, K17(Z1), Aib20, D-Glu24, αMeY25, K31(Z1), C-term NH2; Z1=AEEA-(γ-Glu)-CO-(CH2)10-CH3)")
-1.44
